Each recorded value in this set is attributed to patent US7939548B2.

The following compounds are shown together with reported pIC50 values.
target system: chicken gizzard smooth muscle myosin subfragment-1 chemically crosslinked to either cardiac or skeletal actin (Gallus gallus)
pIC50: −log10 of the molar value.

[
  {
    "input smiles": "O=C(NCc1cccnc1)c1ccc(NCCO)nc1NCCc1cccc(F)c1",
    "pIC50": 4.88
  },
  {
    "input smiles": "Cn1cc(-c2cnc(NCCc3cccc(F)c3)c(C(=O)NCc3cccc(CN)n3)c2)cn1",
    "pIC50": 4.75
  },
  {
    "input smiles": "C/C=C/c1ccc(C(=O)NCc2cccnc2CN)c(NCCc2cccc(F)c2)n1",
    "pIC50": 7.42
  },
  {
    "input smiles": "N#Cc1cnc(NCCc2cccc(F)c2)c(C(=O)NCc2ccccn2)c1",
    "pIC50": 4.90
  },
  {
    "input smiles": "CN(C)C(=N)c1ccc(C(=O)NCc2cccnc2)c(NCCc2cccc(F)c2)n1",
    "pIC50": 4.76
  }
]

* * *

target system: chicken gizzard smooth muscle myosin subfragment-1 chemically crosslinked to either cardiac or skeletal actin (Gallus gallus, UniProt P10587)
pIC50: −log10 of the molar value.
Short version: pIC50 at least 5 is rule met, less is rule not met.

[
  {
    "input smiles": "O=C(CCCCNc1ccc(C(=O)NCc2cccnc2)c(NCCc2cccc(F)c2)n1)NCc1cccnc1",
    "label value": "rule not met"
  },
  {
    "input smiles": "COC(=O)c1cc(C#N)cnc1NCCc1cccc(F)c1",
    "label value": "rule not met"
  },
  {
    "input smiles": "COC(=O)c1ccc(NCCCCC(N)=O)nc1NCCc1cccc(F)c1",
    "label value": "rule not met"
  },
  {
    "input smiles": "CCOC(=O)c1ccc(C(=O)NCc2cccnc2)c(NCCc2cccc(F)c2)n1",
    "label value": "rule met"
  },
  {
    "input smiles": "NCc1cccc(CNC(=O)c2cc(-c3ccccn3)cnc2NCCc2cccc(F)c2)n1",
    "label value": "rule not met"
  },
  {
    "input smiles": "COC(=O)c1ccc(C(=O)NCc2cccnc2)c(NCCc2cccc(F)c2)n1",
    "label value": "rule met"
  },
  {
    "input smiles": "CN(C)C(=O)CCCCNc1ccc(C(=O)NCc2cccnc2)c(NCCc2cccc(F)c2)n1",
    "label value": "rule not met"
  }
]

* * *

target system: chicken gizzard smooth muscle myosin subfragment-1 chemically crosslinked to either cardiac or skeletal actin (Gallus gallus, UniProt P10587)

[
  {
    "input smiles": "O=C(NCc1cccc(CN2C(=O)c3ccccc3C2=O)n1)c1cc(Br)cnc1NCCc1cccc(F)c1",
    "IC50": "9.72 µM"
  },
  {
    "input smiles": "C/C=C/c1nc(NCCc2cccc(F)c2)c(C(=O)NCc2cccnc2)cc1Br",
    "IC50": "0.78 µM"
  },
  {
    "input smiles": "NC(=O)c1ccc(C(=O)NCc2cccnc2)c(NCCc2cccc(F)c2)n1",
    "IC50": "14 µM"
  },
  {
    "input smiles": "NC(=O)CCCCNc1ccc(C(=O)NCc2cccnc2)c(NCCc2cccc(F)c2)n1",
    "IC50": "6.74 µM"
  },
  {
    "input smiles": "CC(C)=Cc1ccc(C(=O)NCc2cccnc2)c(NCCc2cccc(F)c2)n1",
    "IC50": "0.347 µM"
  },
  {
    "input smiles": "CC(=O)N(CCO)c1ccc(C(=O)NCc2cccnc2)c(NCCc2cccc(F)c2)n1",
    "IC50": "53.4 µM"
  },
  {
    "input smiles": "NCc1cccc(CNC(=O)c2cc(-c3ccncc3)cnc2NCCc2cccc(F)c2)n1",
    "IC50": "9.84 µM"
  },
  {
    "input smiles": "CNC(=O)CNC(=O)c1cc(-c2ccccc2C#N)cnc1NCCc1cccc(F)c1",
    "IC50": "18 µM"
  },
  {
    "input smiles": "O=C(NCc1cccnc1)c1ccc(NCc2ccccn2)nc1NCCc1cccc(F)c1",
    "IC50": "10.8 µM"
  },
  {
    "input smiles": "N#Cc1ccc(C(=O)NCc2cccnc2)c(NCCc2cccc(F)c2)n1",
    "IC50": "65.8 µM"
  }
]

* * *

target system: chicken gizzard smooth muscle myosin subfragment-1 chemically crosslinked to either cardiac or skeletal actin (Gallus gallus)
pIC50: −log10 of the molar value.

[
  {
    "input smiles": "O=C(NCc1cccnc1)c1cccnc1NCCc1cccc(F)c1",
    "pIC50": 4.57
  },
  {
    "input smiles": "O=C(NCc1cccnc1)c1ccc(NCCCO)nc1NCCc1cccc(F)c1",
    "pIC50": 5.07
  },
  {
    "input smiles": "C/C=C/c1nc(NCCc2cccc(F)c2)c(C(=O)NCc2cccnc2CNC(=O)OC(C)(C)C)cc1F",
    "pIC50": 4.93
  },
  {
    "input smiles": "CNC(=O)c1ccc(C(=O)NCc2cccnc2)c(NCCc2cccc(F)c2)n1",
    "pIC50": 4.36
  },
  {
    "input smiles": "CC(C)=C(C)c1ccc(C(=O)NCc2cccnc2)c(NCCc2cccc(F)c2)n1",
    "pIC50": 5.56
  },
  {
    "input smiles": "CN(CCO)c1ccc(C(=O)NCc2cccnc2)c(NCCc2cccc(F)c2)n1",
    "pIC50": 4.34
  },
  {
    "input smiles": "O=C(NCc1cccnc1)c1ccc(NCc2ccncc2)nc1NCCc1cccc(F)c1",
    "pIC50": 4.47
  },
  {
    "input smiles": "N=C(N)c1ccc(C(=O)NCc2cccnc2)c(NCCc2cccc(F)c2)n1",
    "pIC50": 5.18
  },
  {
    "input smiles": "O=C(NCc1ccccn1)c1cc(Br)c(Cl)nc1NCCc1cccc(F)c1",
    "pIC50": 4.76
  },
  {
    "input smiles": "O=C(NCc1ccccn1)c1cc(Br)cnc1NCCc1cccc(F)c1",
    "pIC50": 4.93
  }
]

* * *

target system: chicken gizzard smooth muscle myosin subfragment-1 chemically crosslinked to either cardiac or skeletal actin (Gallus gallus, UniProt P10587)

[
  {
    "molecule": "CC(O)CN(C)c1ccc(C(=O)NCc2cccnc2)c(NCCc2cccc(F)c2)n1 (stereo not shown)",
    "IC50": "10.5 µM"
  },
  {
    "molecule": "C/C=C(/C)c1ccc(C(=O)NCc2cccnc2)c(NCCc2cccc(F)c2)n1",
    "IC50": "10.5 µM"
  },
  {
    "molecule": "COCCCNc1ccc(C(=O)NCc2cccnc2)c(NCCc2cccc(F)c2)n1",
    "IC50": "11 µM"
  },
  {
    "molecule": "C=C(OCC)c1ccc(C(=O)NCc2cccnc2)c(NCCc2cccc(F)c2)n1",
    "IC50": "0.702 µM"
  }
]

* * *

The following compounds are shown together with reported pIC50 values.
target system: chicken gizzard smooth muscle myosin subfragment-1 chemically crosslinked to either cardiac or skeletal actin (Gallus gallus, UniProt P10587)
Construct: chicken gizzard smooth muscle myosin subfragment-1
method summary: Smooth muscle myosin ATPase dose response assay (pyruvate kinase/horseradish peroxidase/pyruvate oxidase-coupled)
Format: biochemical
condition label: ATPase activity of crosslinked smooth muscle actomyosin (subfragment-1); amplex red fluorescence; 4 parameter fit; read-out: IC50 Arithmetic Mean
pIC50: −log10 of the molar value.

[
  {
    "input smiles": "CNc1ccc(C(=O)NCc2cccnc2)c(NCCc2cccc(F)c2)n1",
    "pIC50": 4.96
  },
  {
    "input smiles": "O=C(O)c1cc(Br)cnc1NCCc1cccc(F)c1",
    "pIC50": 4.95
  },
  {
    "input smiles": "NCc1cccc(CNC(=O)c2cc(-c3cccnc3)cnc2NCCc2cccc(F)c2)n1",
    "pIC50": 5.13
  }
]
